Test: in vitro
Type: in vitro ADME
Details: PAMPA-BBB; means ± SD of three independent experiments; read-out: Permeability Pe, Experiment
Description: A blood–brain barrier (BBB) penetration assay in vitro is essential for anti-AD drug development. […] The compounds’ blood–brain barrier penetration was evaluated by using the parallel artificial membrane permeation assay (PAMPA) described by Di et al.. The two commercial drugs were purchased from Aladdin (China). Porcine brain lipid was obtained from Sigma (China). […]
outcome.measure: Papp (×10⁻⁶ cm/s)
Answer format: numeric, ×10⁻⁶ cm/s implied, no suffix.

Task: Give the measured Papp of CC1(C)C=Cc2c(c(/C=C/C(=O)NCC3CCN(Cc4ccccc4Cl)CC3)cc3c2[nH]c2ccc(C(C)(C)C)cc23)O1 [Compound 6bd] .
Result: 4.38

----------
I'd be grateful if you could share measured pIC50 for these entries.
To interpret pIC50, take it as minus log10 of a concentration measured in moles per litre.

Task: Notebook entry, AChE (from electric eel) (Electrophorus electricus) assay: pIC50 of `CC1(C)C=Cc2c(c(/C=C/C(=O)NCC3CCN(Cc4ccccc4F)CC3)cc3c2[nH]c2ccc(C(C)(C)C)cc23)O1` = ?
Result: 5.39

Task: Notebook entry, AChE (from electric eel) (Electrophorus electricus) assay: pIC50 of `Cc1ccccc1CN1CCC(CNC(=O)/C=C/c2cc3c([nH]c4ccc(C(C)(C)C)cc43)c3c2OC(C)(C)C=C3)CC1` = ?
Result: 5.37

Task: Notebook entry, AChE (from electric eel) (Electrophorus electricus) assay: pIC50 of `COc1ccc2[nH]c3c4c(c(/C=C/C(=O)NCCC5CCN(Cc6ccccc6F)CC5)cc3c2c1)OC(C)(C)C=C4` = ?
Result: 4.26

Task: Notebook entry, AChE (from electric eel) (Electrophorus electricus) assay: pIC50 of `COc1ccc2[nH]c3c4c(c(/C=C/C(=O)NCC5CCN(Cc6ccccc6Cl)CC5)cc3c2c1)OC(C)(C)C=C4` = ?
Result: 4.04

Task: Notebook entry, AChE (from electric eel) (Electrophorus electricus) assay: pIC50 of `COc1ccc2[nH]c3c4c(c(/C=C/C(=O)NCC5CCN(Cc6ccccc6C)CC5)cc3c2c1)OC(C)(C)C=C4` = ?
Result: 4.23

Task: Notebook entry, AChE (from electric eel) (Electrophorus electricus) assay: pIC50 of `CC1(C)C=Cc2c(c(/C=C/C(=O)NCCC3CCN(Cc4ccccc4)CC3)cc3c2[nH]c2ccc(C(C)(C)C)cc23)O1` = ?
Result: 5.05

----------
I'd be grateful if you could share measured pIC50 for these entries.
Target: butyrylcholinesterase (BuChE, from equine serum) (Equus caballus, UniProt P81908)
Sequence (P81908 whole entry): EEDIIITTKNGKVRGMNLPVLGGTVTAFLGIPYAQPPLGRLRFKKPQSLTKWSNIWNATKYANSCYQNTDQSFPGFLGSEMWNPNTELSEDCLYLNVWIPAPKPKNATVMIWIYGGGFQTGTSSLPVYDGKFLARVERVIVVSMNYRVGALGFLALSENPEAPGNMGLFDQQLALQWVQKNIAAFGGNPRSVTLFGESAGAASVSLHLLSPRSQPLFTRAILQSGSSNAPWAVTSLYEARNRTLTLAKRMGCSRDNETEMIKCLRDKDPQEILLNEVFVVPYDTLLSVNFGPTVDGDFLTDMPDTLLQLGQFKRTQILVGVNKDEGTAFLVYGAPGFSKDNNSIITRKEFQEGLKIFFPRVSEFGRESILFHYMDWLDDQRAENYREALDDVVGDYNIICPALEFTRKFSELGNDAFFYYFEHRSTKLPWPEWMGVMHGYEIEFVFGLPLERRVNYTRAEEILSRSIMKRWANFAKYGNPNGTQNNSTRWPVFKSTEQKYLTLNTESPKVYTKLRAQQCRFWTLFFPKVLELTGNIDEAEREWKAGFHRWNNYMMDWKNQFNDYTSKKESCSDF
Test: biochemical
Details: eqBuChE; mean ± spread
To interpret pIC50, take it as minus log10 of a concentration measured in moles per litre.

Task: Give the measured pIC50 of `COc1ccc2[nH]c3c4c(c(/C=C/C(=O)NCC5CCN(Cc6ccccc6C)CC5)cc3c2c1)OC(C)(C)C=C4` .
Result: 4.48

Task: Give the measured pIC50 of `Cc1ccccc1CN1CCC(CCNC(=O)/C=C/c2cc3c([nH]c4ccc(C(C)(C)C)cc43)c3c2OC(C)(C)C=C3)CC1` .
Result: 4.47

Task: Give the measured pIC50 of `COc1ccc2[nH]c3c4c(c(/C=C/C(=O)NCC5CCN(Cc6ccccc6F)CC5)cc3c2c1)OC(C)(C)C=C4` .
Result: 4.50

Task: Give the measured pIC50 of `COc1ccc2[nH]c3c4c(c(/C=C/C(=O)NC5CCN(Cc6ccccc6)CC5)cc3c2c1)OC(C)(C)C=C4` .
Result: 4.16

Task: Give the measured pIC50 of `CC1(C)C=Cc2c(c(/C=C/C(=O)NCC3CCN(Cc4ccccc4)CC3)cc3c2[nH]c2ccc(C(C)(C)C)cc23)O1` .
Result: 4.91

Task: Give the measured pIC50 of `Cc1ccccc1CN1CCC(NC(=O)/C=C/c2cc3c([nH]c4ccc(C(C)(C)C)cc43)c3c2OC(C)(C)C=C3)CC1` .
Result: 4.47

Task: Give the measured pIC50 of `CC1(C)C=Cc2c(c(/C=C/C(=O)NCCC3CCN(Cc4ccccc4Cl)CC3)cc3c2[nH]c2ccc(C(C)(C)C)cc23)O1` .
Result: 4.76

Task: Give the measured pIC50 of `CC1(C)C=Cc2c(c(/C=C/C(=O)NCC3CCN(Cc4ccc(Cl)cc4)CC3)cc3c2[nH]c2ccc(C(C)(C)C)cc23)O1` .
Result: 4.92

Task: Give the measured pIC50 of `COc1ccc2[nH]c3c4c(c(/C=C/C(=O)NCC5CCN(Cc6ccccc6Cl)CC5)cc3c2c1)OC(C)(C)C=C4` .
Result: 4.43

Task: Give the measured pIC50 of `CC1(C)C=Cc2c(c(/C=C/C(=O)NCC3CCN(Cc4cccc(Cl)c4)CC3)cc3c2[nH]c2ccc(C(C)(C)C)cc23)O1` .
Result: 5.20

Task: Give the measured pIC50 of Cc1cc2c([nH]c3ccc(C(C)(C)C)cc32)c2c1OC(C)(C)C=C2 [CZ-7, reference compound] .
Result: 4.23

Task: Give the measured pIC50 of `COc1ccc2[nH]c3c4c(c(/C=C/C(=O)NCCC5CCN(Cc6ccccc6F)CC5)cc3c2c1)OC(C)(C)C=C4` .
Result: 4.74

Task: Give the measured pIC50 of `COc1ccc2[nH]c3c4c(c(/C=C/C(=O)NCCC5CCN(Cc6ccccc6C)CC5)cc3c2c1)OC(C)(C)C=C4` .
Result: 4.57

Task: Give the measured pIC50 of `COc1ccc2[nH]c3c4c(c(/C=C/C(=O)NCCC5CCN(Cc6ccccc6)CC5)cc3c2c1)OC(C)(C)C=C4` .
Result: 4.58

Task: Give the measured pIC50 of `CC1(C)C=Cc2c(c(/C=C/C(=O)NC3CCN(Cc4ccccc4Cl)CC3)cc3c2[nH]c2ccc(C(C)(C)C)cc23)O1` .
Result: 4.41

----------
Target: AChE (from electric eel) (Electrophorus electricus, UniProt O42275)
Sequence (O42275 24-633): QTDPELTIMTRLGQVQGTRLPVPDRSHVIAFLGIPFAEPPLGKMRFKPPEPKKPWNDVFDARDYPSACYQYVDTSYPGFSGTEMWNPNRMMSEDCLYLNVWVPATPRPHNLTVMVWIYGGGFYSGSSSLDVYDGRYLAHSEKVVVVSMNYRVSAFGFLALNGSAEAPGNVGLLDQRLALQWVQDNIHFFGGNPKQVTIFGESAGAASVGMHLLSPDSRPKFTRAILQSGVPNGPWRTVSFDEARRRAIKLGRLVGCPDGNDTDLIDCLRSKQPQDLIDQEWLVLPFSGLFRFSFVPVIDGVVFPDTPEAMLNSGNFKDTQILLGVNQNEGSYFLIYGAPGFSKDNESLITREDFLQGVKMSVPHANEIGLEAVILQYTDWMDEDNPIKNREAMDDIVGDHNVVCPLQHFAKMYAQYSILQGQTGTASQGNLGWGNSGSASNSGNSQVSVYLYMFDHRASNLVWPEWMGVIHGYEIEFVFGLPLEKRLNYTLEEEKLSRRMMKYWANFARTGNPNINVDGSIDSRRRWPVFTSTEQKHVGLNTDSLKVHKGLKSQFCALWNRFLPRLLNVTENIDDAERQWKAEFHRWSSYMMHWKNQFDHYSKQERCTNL
pIC50: −log10 of the molar value.
Decision: pIC50 >= 5 yields fulfilled, all other cases yield not fulfilled.

Task: Hi, just wondering whether `COc1ccc2[nH]c3c4c(c(/C=C/C(=O)NCCC5CCN(Cc6ccccc6Cl)CC5)cc3c2c1)OC(C)(C)C=C4` shows pIC50 of 5 or higher.
Result: not fulfilled

Task: Hi, just wondering whether `COc1ccc2[nH]c3c4c(c(/C=C/C(=O)NCCC5CCN(Cc6ccccc6)CC5)cc3c2c1)OC(C)(C)C=C4` shows pIC50 of 5 or higher.
Result: not fulfilled

Task: Hi, just wondering whether `COc1ccc2[nH]c3c4c(c(/C=C/C(=O)NCCC5CCN(Cc6ccccc6C)CC5)cc3c2c1)OC(C)(C)C=C4` shows pIC50 of 5 or higher.
Result: not fulfilled

Task: Hi, just wondering whether `CC1(C)C=Cc2c(c(/C=C/C(=O)NCC3CCN(Cc4ccccc4)CC3)cc3c2[nH]c2ccc(C(C)(C)C)cc23)O1` shows pIC50 of 5 or higher.
Result: fulfilled

Task: Hi, just wondering whether `CC1(C)C=Cc2c(c(/C=C/C(=O)NCCC3CCN(Cc4ccccc4Cl)CC3)cc3c2[nH]c2ccc(C(C)(C)C)cc23)O1` shows pIC50 of 5 or higher.
Result: not fulfilled

Task: Hi, just wondering whether `CC1(C)C=Cc2c(c(/C=C/C(=O)NCC3CCN(Cc4ccccc4Cl)CC3)cc3c2[nH]c2ccc(C(C)(C)C)cc23)O1` shows pIC50 of 5 or higher.
Result: fulfilled

Task: Hi, just wondering whether `CC1(C)C=Cc2c(c(/C=C/C(=O)NC3CCN(Cc4ccccc4)CC3)cc3c2[nH]c2ccc(C(C)(C)C)cc23)O1` shows pIC50 of 5 or higher.
Result: not fulfilled

Task: Hi, just wondering whether `COc1ccc2[nH]c3c4c(c(/C=C/C(=O)NCC5CCN(Cc6ccccc6)CC5)cc3c2c1)OC(C)(C)C=C4` shows pIC50 of 5 or higher.
Result: not fulfilled

Task: Hi, just wondering whether `CC1(C)C=Cc2c(c(/C=C/C(=O)NCC3CCN(Cc4ccc(Cl)cc4)CC3)cc3c2[nH]c2ccc(C(C)(C)C)cc23)O1` shows pIC50 of 5 or higher.
Result: fulfilled

Task: Hi, just wondering whether `COc1ccc2[nH]c3c4c(c(/C=C/C(=O)NCC5CCN(Cc6ccccc6F)CC5)cc3c2c1)OC(C)(C)C=C4` shows pIC50 of 5 or higher.
Result: not fulfilled

Task: Hi, just wondering whether `Cc1ccccc1CN1CCC(CCNC(=O)/C=C/c2cc3c([nH]c4ccc(C(C)(C)C)cc43)c3c2OC(C)(C)C=C3)CC1` shows pIC50 of 5 or higher.
Result: not fulfilled

Task: Hi, just wondering whether `CC1(C)C=Cc2c(c(/C=C/C(=O)NCC3CCN(Cc4cccc(Cl)c4)CC3)cc3c2[nH]c2ccc(C(C)(C)C)cc23)O1` shows pIC50 of 5 or higher.
Result: fulfilled
